system: human prostanoid EP2 receptor (Homo sapiens)
Construct: expressed in transfected cells
Sequence (P43116 whole entry): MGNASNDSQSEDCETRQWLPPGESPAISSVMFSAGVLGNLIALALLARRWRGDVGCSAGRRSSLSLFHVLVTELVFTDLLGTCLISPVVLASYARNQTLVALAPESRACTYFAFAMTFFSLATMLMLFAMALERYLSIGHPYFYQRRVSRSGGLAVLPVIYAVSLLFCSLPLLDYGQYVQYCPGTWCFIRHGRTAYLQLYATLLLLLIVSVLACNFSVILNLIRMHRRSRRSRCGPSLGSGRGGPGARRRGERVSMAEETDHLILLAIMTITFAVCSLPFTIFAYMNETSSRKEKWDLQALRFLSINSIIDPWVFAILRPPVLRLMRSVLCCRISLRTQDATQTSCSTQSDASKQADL
assay.name: FLIPR Ca2+ signaling PG antagonist assay, EP2 stable cell line
Assay type: cell-based
condition.description: HEK-293 EBNA cells, human recombinant EP2 with chimeric Gqs; standard agonist PGE2
property.measured: Kb

Example entries begin here.
compound: CC(C)COc1ccc(OCC(F)F)cc1Cn1ncc2cc(C(=O)O)ccc21
result: ≥ 10 µM
//
compound: CC(C)COc1c(F)cc(Cl)cc1Cn1ncc2cc(C(=O)O)ccc21
result: ≥ 10 µM
//
compound: O=C(O)c1cccc2c1cnn2Cc1cc(Cl)ccc1OCc1ccc(Cl)cc1
result: 0.9 µM
//
compound: CCC(CC)COc1ccc(Cl)cc1Cn1ccc2cc(C(=O)O)ccc21
result: 8.7 µM
//
compound: O=C(O)c1cccc2nn(Cc3cc(Cl)ccc3OCc3ccc(Cl)cc3)cc12
result: ≥ 10 µM

// returns reported Kb for input CCC(CC)COc1ccc(Cl)cc1Cn1ncc2cc(C(=O)O)ccc21
2.9 µM

Query CC(C)COc1ccc(OC(F)(F)F)cc1Cn1ncc2cc(C(=O)O)ccc21 next
≥ 10 µM

Query CC1(COc2ccc(Br)cc2Cn2ncc3cc(C(=O)O)ccc32)CC1 next
8.8 µM

Query CCC(CC)COc1ccc(Br)cc1Cn1nc(C)c2cc(C(=O)O)cnc21 next
≥ 10 µM

Query CCC(CC)COc1ccc(Br)cc1Cn1c(C)cc2cc(C(=O)O)ccc21 next
≥ 10 µM

Query CC(C)COc1ccc(Br)cc1Cn1ncc2cc(C(=O)O)ccc21 next
1.8 µM

Query O=C(O)c1ccc2c(cnn2Cc2cc(C(F)(F)F)ccc2OCc2ccc(Cl)cc2)c1 next
≥ 10 µM

Query CCC(CC)COc1ccc(Cl)cc1Cn1nc(C)c2cc(C(=O)O)ccc21 next
7.1 µM
